Test system: M-1-P-producing enzyme
Assay: Maltose transfer reaction without phosphate, HPLC analysis of products
Format: biochemical, Corynebacterium glutamicum JCM1321
Conditions: 2.0% substrate, 0.16 U/mL enzyme, one hour at 37°C
Method: As substrates, 2% dextrin MAX 1000 (Matsutani Chemical) and 1M phosphate buffer (pH 7) were employed. To the substrates, a suitably diluted enzyme was added, and the mixture was incubated for one hour at 37°C, followed by quantification of the produced […] through HPLC. […]
The entries below come with measured Product (Peak area x 10^6): DP=8 values attached.

molecule	observedMeasurement
OC[C@H]1OC(O)[C@H](O)[C@@H](O)[C@@H]1O (some centres unmarked)	0.00 x 10^6

Could you now consider this next molecule?
Exercise: Retrieve Product (Peak area x 10^6): DP=8 measured for OC[C@H]1O[C@H](O[C@H]2[C@H](O)[C@@H](O)[C@@H](O[C@H]3[C@H](O)[C@@H](O)[C@@H](O[C@H]4[C@H](O)[C@@H](O)[C@@H](O[C@H]5[C@H](O)[C@@H](O)[C@@H](O[C@H]6[C@H](O)[C@@H](O)C(O)O[C@@H]6CO)O[C@@H]5CO)O[C@@H]4CO)O[C@@H]3CO)O[C@@H]2CO)[C@H](O)[C@@H](O)[C@@H]1O (some centres unmarked) and print it.
Solution: 5.04 x 10^6

---

System: M-1-P-producing enzyme
Assay: Maltose transfer reaction without phosphate, HPLC analysis of products
Assay type: biochemical, Corynebacterium glutamicum JCM1321
Conditions: 2.0% substrate, 0.16 U/mL enzyme, one hour at 37°C
observationType: Product (Peak area x 10^6): DP=10

Before answering, review these 2 worked examples.
compound	observedMeasurement
OC[C@H]1O[C@H](O[C@H]2[C@H](O)[C@@H](O)C(O)O[C@@H]2CO)[C@H](O)[C@@H](O)[C@@H]1O (mixture of isomers)	0.00 x 10^6
OC[C@H]1O[C@H](O[C@H]2[C@H](O)[C@@H](O)[C@@H](O[C@H]3[C@H](O)[C@@H](O)[C@@H](O[C@H]4[C@H](O)[C@@H](O)[C@@H](O[C@H]5[C@H](O)[C@@H](O)[C@@H](O[C@H]6[C@H](O)[C@@H](O)[C@@H](O[C@H]7[C@H](O)[C@@H](O)C(O)O[C@@H]7CO)O[C@@H]6CO)O[C@@H]5CO)O[C@@H]4CO)O[C@@H]3CO)O[C@@H]2CO)[C@H](O)[C@@H](O)[C@@H]1O (stereo partly drawn)	0.00 x 10^6

Could you now consider this next compound?
Exercise: Print M-1-P-producing enzyme Product (Peak area x 10^6): DP=10 for OC[C@H]1O[C@H](O[C@H]2[C@H](O)[C@@H](O)[C@@H](O[C@H]3[C@H](O)[C@@H](O)[C@@H](O[C@H]4[C@H](O)[C@@H](O)[C@@H](O[C@H]5[C@H](O)[C@@H](O)C(O)O[C@@H]5CO)O[C@@H]4CO)O[C@@H]3CO)O[C@@H]2CO)[C@H](O)[C@@H](O)[C@@H]1O (stereo partly drawn) .
Solution: 0.00 x 10^6

---

The entries below come with measured Product (Peak area x 10^6): DP=5 values attached.
System: M-1-P-producing enzyme
Assay: Maltose transfer reaction without phosphate, HPLC analysis of products
Type: biochemical, Corynebacterium glutamicum JCM1321
Settings: 2.0% substrate, 0.16 U/mL enzyme, one hour at 37°C

Exercise: Print M-1-P-producing enzyme Product (Peak area x 10^6): DP=5 for OC[C@H]1O[C@H](O[C@H]2[C@H](O)[C@@H](O)[C@@H](O[C@H]3[C@H](O)[C@@H](O)[C@@H](O[C@H]4[C@H](O)[C@@H](O)C(O)O[C@@H]4CO)O[C@@H]3CO)O[C@@H]2CO)[C@H](O)[C@@H](O)[C@@H]1O (stereo partly shown) .
Solution: 0.00 x 10^6

Exercise: Print M-1-P-producing enzyme Product (Peak area x 10^6): DP=5 for OC[C@H]1O[C@H](O[C@H]2[C@H](O)[C@@H](O)[C@@H](O[C@H]3[C@H](O)[C@@H](O)[C@@H](O[C@H]4[C@H](O)[C@@H](O)[C@@H](O[C@H]5[C@H](O)[C@@H](O)[C@@H](O[C@H]6[C@H](O)[C@@H](O)C(O)O[C@@H]6CO)O[C@@H]5CO)O[C@@H]4CO)O[C@@H]3CO)O[C@@H]2CO)[C@H](O)[C@@H](O)[C@@H]1O (stereo partly shown) .
Solution: 0.00 x 10^6

Exercise: Print M-1-P-producing enzyme Product (Peak area x 10^6): DP=5 for OC[C@H]1O[C@H](O[C@H]2[C@H](O)[C@@H](O)[C@@H](O[C@H]3[C@H](O)[C@@H](O)[C@@H](O[C@H]4[C@H](O)[C@@H](O)[C@@H](O[C@H]5[C@H](O)[C@@H](O)[C@@H](O[C@H]6[C@H](O)[C@@H](O)[C@@H](O[C@H]7[C@H](O)[C@@H](O)C(O)O[C@@H]7CO)O[C@@H]6CO)O[C@@H]5CO)O[C@@H]4CO)O[C@@H]3CO)O[C@@H]2CO)[C@H](O)[C@@H](O)[C@@H]1O (stereo partly shown) .
Solution: 9.59 x 10^6

Exercise: Print M-1-P-producing enzyme Product (Peak area x 10^6): DP=5 for OC[C@H]1OC(O)[C@H](O)[C@@H](O)[C@@H]1O (stereo partly shown) .
Solution: 0.00 x 10^6

Exercise: Print M-1-P-producing enzyme Product (Peak area x 10^6): DP=5 for OC[C@H]1O[C@H](O[C@H]2[C@H](O)[C@@H](O)C(O)O[C@@H]2CO)[C@H](O)[C@@H](O)[C@@H]1O (mixture of isomers) .
Solution: 0.00 x 10^6

Exercise: Print M-1-P-producing enzyme Product (Peak area x 10^6): DP=5 for OC[C@H]1O[C@H](O[C@H]2[C@H](O)[C@@H](O)[C@@H](O[C@H]3[C@H](O)[C@@H](O)[C@@H](O[C@H]4[C@H](O)[C@@H](O)[C@@H](O[C@H]5[C@H](O)[C@@H](O)C(O)O[C@@H]5CO)O[C@@H]4CO)O[C@@H]3CO)O[C@@H]2CO)[C@H](O)[C@@H](O)[C@@H]1O (stereo partly shown) .
Solution: 26.40 x 10^6

Exercise: Print M-1-P-producing enzyme Product (Peak area x 10^6): DP=5 for OC[C@H]1O[C@H](O[C@H]2[C@H](O)[C@@H](O)[C@@H](O[C@H]3[C@H](O)[C@@H](O)C(O)O[C@@H]3CO)O[C@@H]2CO)[C@H](O)[C@@H](O)[C@@H]1O (stereo partly shown) .
Solution: 0.00 x 10^6
